Property: % knockdown of DMPK in NHP cells using Antibody-DMPK ASO conjugate; scope: individual molecules
- Tested on: DMPK
- EXPERIMENT SUMMARY: DMPK knockdown by anti-TfR1 antibody-oligonucleotide conjugates in NHP myotubes
- Assay type: cell-based, non-human primate
- SETTINGS: conjugate with control DMPK-ASO, 72 hours, concentration not stated (0.5, 5, 50 nM tested)
Give the value, in units of %, as a plain number.

Here's what some known entries look like.
molecule="3-E5 (antibody, V domains shown) VH: EIQMKQSGAELVKPGASVKISCKASGYSFTGYNMNWVKQSHGKSLEWIGNINPYYGSTGYNQKFKGKATLTVDKSSSTAYMQLNSLTSEDSAVYYCARGDYGYDEGTWFAYWGQGTLVTVSA VL: DIVMSQSPSSLAVSAGEKVTMSCKSSQSLLNSRTRKNYLAWYQQKPEQSPKLLIYWASTRESGVPDRFTGSGSGTDFTLTISSVQAEDLAVYYCKQSYNLPFTFGSGTKLEIK" value_reported=59
molecule="3-M12 (antibody, V domains shown) VH: DVQLQESGPGLVKPSQSLSLTCSVTGYSITSGYYWNWIRQFPGNKLEWMGYITFDGANNYNPSLKNRISITRDTSKNQFFLKLTSVTTEDTATYYCTRSSYDYDVLDYWGQGTTLTVSS VL: DIQMTQTTSSLSASLGDRVTISCRASQDISNFLNWYQQRPDGTVKLLIYYTSRLHSGVPSRFSGSGSGTDFSLTVSNLEQEDIATYFCQQGHTLPYTFGGGTKLEIK" value_reported=77

Shifting focus to the molecule that follows.
Input line: // lookup % knockdown of DMPK in NHP cells using Antibody-DMPK ASO conjugate for 10-H2 (antibody, V domains shown) VH: EVQLVESGGDLVKPGGSLKLSCAASGFTFSDYGMHWVRQGPEKGLEWVAYINSGSSTIYYADTVKGRFTISRDNAKNTLFLQMTSLRSEDTAMYYCARPGDYDNYAMDYWGQGTSVTVSS VL: DIVMTQSHKFLSTSVGDRVSITCKASQDVSVAVAWYQQKPGQSPKLLIYWAYTRHTGVPDRFTGSGSGTEYTLTISSVQAEDLALYYCQQHYNTPPWTFGGGTKLEIK
Output line: 2

From: patent US20230144436A1
